Answer each item with its documented MIC.
# Tested on: P. aeruginosa PAOUW∆oprF
# Procedure Summary: MIC, CLSI broth microdilution in BD Phoenix AST Broth
# Format: cell-based, Pseudomonas aeruginosa
# Condition Label: Pseudomonas aeruginosa, strain PAOUWΔoprF; agent alone; 37°C, 18–22 h; three biological replicates
Numbers only, in µg/mL.

C[C@H]1COc2c(N3CCN(C)CC3)c(F)cc3c(=O)c(C(=O)O)cn1c23 [Levofloxacin, levofloxacin]	0.5

// batch mode: one MIC value per listed entry
1. C[C@H]1c2cccc(O)c2C(=O)C2=C(O)[C@]3(O)C(=O)C(C(N)=O)=C(O)[C@@H](N(C)C)[C@@H]3[C@@H](O)[C@@H]21 [Doxycycline, doxycycline]
2. CC(C)(O/N=C(\C(=O)N[C@@H]1C(=O)N2C(C(=O)[O-])=C(C[n+]3ccccc3)CS[C@H]12)c1csc(N)n1)C(=O)O [Ceftazidime, ceftazidime]
3. CO/N=C(\C(=O)N[C@@H]1C(=O)N2C(C(=O)[O-])=C(C[N+]3(C)CCCC3)CS[C@H]12)c1csc(N)n1 [Cefepime, cefepime]

[out]
16
2
0.5

[in] Item C[C@H]1[C@H](NC(=O)/C(=N\OC(C)(C)C(=O)O)c2csc(N)n2)C(=O)N1S(=O)(=O)O [Aztreonam, aztreonam] has what recorded MIC?
[out] 8

* * *

# System: PAO1 mutant MIN8_1, nalD(R3C), pilM(Q62X)
# Procedure Summary: MIC, Sensititre custom plate
# Type: cell-based
# Condition Label: Pseudomonas aeruginosa, PAO1, read-out: MIC, Sensititre
# Procedure: Selection of resistant mutants was performed for minocycline with and without RW01 in three independent replicates for wild-type P. aeruginosa reference strain PAO1. Tubes containing Mueller-Hinton broth (MHB) were inoculated and incubated for 24 h at 37°C. Afterward, 1/100 dilution of each tube was incubated at 37°C in MHB to late-exponential growth phase, measured by spectrophotometry at OD600. […] A control plate without antibiotic was included as inoculum control. […]
Measure Name: MIC (µg/mL)
One number for each entry, in µg/mL.

// worked examples, MIC included
CO/N=C(\C(=O)N[C@@H]1C(=O)N2C(C(=O)[O-])=C(C[N+]3(C)CCCC3)CS[C@H]12)c1csc(N)n1 [Cefepime, cefepime]	4
C[C@@H](O)[C@H]1C(=O)N2C(C(=O)O)=C(S[C@@H]3CN[C@H](C(=O)N(C)C)C3)[C@H](C)[C@H]12 [Meropenem, meropenem]	2

[in] What value of MIC has been recorded for this entry: CC(C)(O/N=C(\C(=O)N[C@@H]1C(=O)N2C(C(=O)[O-])=C(C[n+]3ccccc3)CS[C@H]12)c1csc(N)n1)C(=O)O [Ceftazidime, ceftazidime]
[out] 4

* * *

Assign MIC to each entry below.
# Tested on: PAO1 mutant MIN8_1, nalD(R3C), pilM(Q62X)
# Procedure Summary: MIC, Sensititre custom plate
# Type: cell-based
# Condition Label: Pseudomonas aeruginosa, PAO1, read-out: MIC, Sensititre
One number for each entry, in µg/mL.

Solved cases (2 shown):
CC1(C)S[C@@H]2[C@H](NC(=O)[C@H](C(=O)O)c3ccsc3)C(=O)N2[C@H]1C(=O)O [TIC, ticarcillin]	64
NC[C@H]1O[C@H](O[C@H]2[C@H](O)[C@@H](O[C@H]3O[C@H](CO)[C@@H](O)[C@H](N)[C@H]3O)[C@H](N)C[C@@H]2N)[C@H](N)C[C@@H]1O [TOB, tobramycin]	0.5

Attention now shifts to the item below.
[in] // returns reported MIC for input C[C@@H](O)[C@H]1C(=O)N2C(C(=O)O)=C(SCCN=CN)C[C@H]12 [Imipenem, imipenem]
[out] 2

* * *

# Test system: PAO1 mutant MIN1_RW01_2, mexR(G58E), pilB(G326D), hutC(Y181X)
# Procedure Summary: MIC, Sensititre custom plate
# Type: cell-based
# Condition Label: Pseudomonas aeruginosa, PAO1, read-out: MIC, Sensititre
Measure Name: MIC (µg/mL)
Numbers only, in µg/mL.

Consider the following illustrative entries.
CO/N=C(\C(=O)N[C@@H]1C(=O)N2C(C(=O)[O-])=C(C[N+]3(C)CCCC3)CS[C@H]12)c1csc(N)n1 [Cefepime, cefepime]	4
O=C(O)c1cn(C2CC2)c2cc(N3CCNCC3)c(F)cc2c1=O [CIP, ciprofloxacin]	0.5
C[C@@H](O)[C@H]1C(=O)N2C(C(=O)O)=C(S[C@@H]3CN[C@H](C(=O)N(C)C)C3)[C@H](C)[C@H]12 [Meropenem, meropenem]	4

Note: attention shifts to another entry.
[in] Request - read-out MIC | tested on PAO1 mutant MIN1_RW01_2, mexR(G58E), pilB(G326D), hutC(Y181X) | compound C[C@H]1[C@H](NC(=O)/C(=N\OC(C)(C)C(=O)O)c2csc(N)n2)C(=O)N1S(=O)(=O)O [Aztreonam, aztreonam]
[out] 16

* * *

Could you please report measured MIC for the items listed next?
# System: PAO1 mutant MIN16_1, nalD(T43P)
# Procedure Summary: MIC, Sensititre custom plate
# Format: cell-based
# Condition Label: Pseudomonas aeruginosa, PAO1, read-out: MIC, Sensititre
Answer format: number, then unit.

Consider the reported MIC for these molecules:
CC1(C)S[C@@H]2[C@H](NC(=O)[C@H](C(=O)O)c3ccsc3)C(=O)N2[C@H]1C(=O)O [TIC, ticarcillin]	64 µg/mL
NCC[C@H](O)C(=O)N[C@@H]1C[C@H](N)[C@@H](O[C@H]2O[C@H](CN)[C@@H](O)[C@H](O)[C@H]2O)[C@H](O)[C@H]1O[C@H]1O[C@H](CO)[C@@H](O)[C@H](N)[C@H]1O [AMI, amikacin]	4 µg/mL

[in] For PAO1 mutant MIN16_1, nalD(T43P), provide MIC of C[C@@H](O)[C@H]1C(=O)N2C(C(=O)O)=C(S[C@@H]3CN[C@H](C(=O)N(C)C)C3)[C@H](C)[C@H]12 [Meropenem, meropenem] please.
[out] 4 µg/mL

* * *

# System: P. aeruginosa 125B
# Procedure Summary: MIC, CLSI broth microdilution in BD Phoenix AST Broth
# Assay type: cell-based, Pseudomonas aeruginosa
# Condition Label: Pseudomonas aeruginosa; strain 125B; agent alone; 37°C, 18–22 h; three biological replicates
MIC less than 2 µg/mL is Fulfilled; MIC greater than or equal to 2 µg/mL is Not fulfilled.

C[C@H]1[C@H](NC(=O)/C(=N\OC(C)(C)C(=O)O)c2csc(N)n2)C(=O)N1S(=O)(=O)O [Aztreonam, aztreonam]	Not fulfilled
C[C@H]1c2cccc(O)c2C(=O)C2=C(O)[C@]3(O)C(=O)C(C(N)=O)=C(O)[C@@H](N(C)C)[C@@H]3[C@@H](O)[C@@H]21 [Doxycycline, doxycycline]	Not fulfilled
O=C(N[C@H](CO)[C@H](O)c1ccc([N+](=O)[O-])cc1)C(Cl)Cl [Chloramphenicol, chloramphenicol]	Not fulfilled

[in] A record lists CN(C)c1ccc(O)c2c1C[C@H]1C[C@H]3[C@H](N(C)C)C(O)=C(C(N)=O)C(=O)[C@@]3(O)C(O)=C1C2=O [Minocycline, minocycline] . Is its MIC below 2 µg/mL?
[out] Not fulfilled

[in] // repeat for CO/N=C(\C(=O)N[C@@H]1C(=O)N2C(C(=O)[O-])=C(C[N+]3(C)CCCC3)CS[C@H]12)c1csc(N)n1 [Cefepime, cefepime] and report
[out] Not fulfilled

[in] Next compound: C[C@@H](O)[C@H]1C(=O)N2C(C(=O)O)=C(S[C@@H]3CN[C@H](C(=O)N(C)C)C3)[C@H](C)[C@H]12 [Meropenem, meropenem]
[out] Fulfilled

[in] Also, CC(C)(O/N=C(\C(=O)N[C@@H]1C(=O)N2C(C(=O)[O-])=C(C[n+]3ccccc3)CS[C@H]12)c1csc(N)n1)C(=O)O [Ceftazidime, ceftazidime] please.
[out] Not fulfilled

[in] What do we get for CCn1cc(C(=O)O)c(=O)c2cc(F)c(N3CCNCC3)cc21 [Norfloxacin, norfloxacin] ?
[out] Fulfilled

[in] How about this compound: C[C@H]1COc2c(N3CCN(C)CC3)c(F)cc3c(=O)c(C(=O)O)cn1c23 [Levofloxacin, levofloxacin]
[out] Fulfilled

[in] CN(C)c1cc(NC(=O)CNC(C)(C)C)c(O)c2c1C[C@H]1C[C@H]3[C@H](N(C)C)C(O)=C(C(N)=O)C(=O)[C@@]3(O)C(O)=C1C2=O [Tigecycline, tigecycline] ?
[out] Not fulfilled

[in] Param item: CCN[C@@H]1C[C@H](N)[C@@H](O[C@H]2OC(CN)=CC[C@H]2N)[C@H](O)[C@H]1O[C@H]1OC[C@](C)(O)[C@H](NC)[C@H]1O [Netilmicin, netilmicin]
[out] Not fulfilled

* * *

Kindly supply the reported log10 MIC values for the records listed here.
# Test system: P. aeruginosa 41B
# Procedure Summary: MIC, CLSI broth microdilution in BD Phoenix AST Broth
# Type: cell-based, Pseudomonas aeruginosa
# Condition Label: Pseudomonas aeruginosa; strain 41B; agent alone; 37°C, 18–22 h; three biological replicates
Log10 applied to MIC; unit prior to transform: µg/mL.

CCN[C@@H]1C[C@H](N)[C@@H](O[C@H]2OC(CN)=CC[C@H]2N)[C@H](O)[C@H]1O[C@H]1OC[C@](C)(O)[C@H](NC)[C@H]1O	0.90

Each of the following entries comes with a recorded value; kindly state log10 MIC for each.
1. O=C(N[C@H](CO)[C@H](O)c1ccc([N+](=O)[O-])cc1)C(Cl)Cl
2. CC(C)(O/N=C(\C(=O)N[C@@H]1C(=O)N2C(C(=O)[O-])=C(C[n+]3ccccc3)CS[C@H]12)c1csc(N)n1)C(=O)O
3. CCn1cc(C(=O)O)c(=O)c2cc(F)c(N3CCNCC3)cc21

[out]
1: 2.11; 2: 0.90; 3: 0.60

State recorded log10 MIC for all listed molecules.
1. C[C@H]1c2cccc(O)c2C(=O)C2=C(O)[C@]3(O)C(=O)C(C(N)=O)=C(O)[C@@H](N(C)C)[C@@H]3[C@@H](O)[C@@H]21
2. C[C@H]1COc2c(N3CCN(C)CC3)c(F)cc3c(=O)c(C(=O)O)cn1c23
3. CO/N=C(\C(=O)N[C@@H]1C(=O)N2C(C(=O)[O-])=C(C[N+]3(C)CCCC3)CS[C@H]12)c1csc(N)n1 [Cefepime, cefepime]

[out]
1. 1.20
2. 0.00
3. 0.90
